- Method: Inhibition of NS5A in HuH7 cell infected HCV genotype 1b Con1 assessed as decrease in viral replication after 3 days in presence of 40% human plasma by luciferase reporter gene assay
Property Measured: pEC50
As a rule, pEC50 stands for the negative log10 of the concentration, concentration in M.

Some entries whose results are on file:
COC(=O)N[C@H](C(=O)N1CCC[C@H]1c1nc2ccc([C@H]3CC[C@H](c4ccc5nc([C@@H]6CCCN6C(=O)[C@@H](NC(=O)OC)C(C)C)[nH]c5c4)N3c3ccc(Oc4ccccc4)cc3)cc2[nH]1)C(C)C ... 9.55
COC(=O)N[C@H](C(=O)N1CCC[C@H]1c1nc2ccc([C@H]3CC[C@H](c4ccc5nc([C@@H]6CCCN6C(=O)[C@@H](NC(=O)OC)C(C)C)[nH]c5c4)N3c3cc(Cl)c(N4CCCCC4)c(Cl)c3)cc2[nH]1)C(C)C ... 9.88
COC(=O)N[C@H](C(=O)N1CCC[C@H]1c1nc2cc(F)c([C@H]3CC[C@H](c4cc5[nH]c([C@@H]6CCCN6C(=O)[C@@H](NC(=O)OC)[C@@H](C)OC)nc5cc4F)N3c3cc(F)c(N4CCC(c5ccccc5)CC4)c(F)c3)cc2[nH]1)[C@@H](C)OC ... 9.86

Okay, now this compound:
For COC(=O)N[C@H](C(=O)N1CCC[C@H]1c1nc2ccc([C@H]3CC[C@H](c4ccc5nc([C@@H]6CCCN6C(=O)[C@@H](NC(=O)OC)C(C)C)[nH]c5c4)N3c3ccc(N4CCCCC4)c(F)c3)cc2[nH]1)C(C)C the compound record lists pEC50 as 9.42

###

- Method: Inhibition of HCV genotype 1b Con1 NS5A expressed in HuH7 cell infected HCV genotype 2a assessed as decrease in viral replication after 3 days by luciferase reporter gene assay
Property Measured: pEC50
As a rule, pEC50 stands for the negative log10 of the concentration, concentration in M.

Some entries whose results are on file:
COC(=O)N[C@H](C(=O)N1CCC[C@H]1c1nc2cc([C@H]3CC[C@H](c4ccc5[nH]c([C@@H]6CCCN6C(=O)[C@@H](NC(=O)OC)C(C)C)nc5c4)N3c3cc(F)c(N4CCCCC4)c(F)c3)ccc2[nH]1)C(C)C ... 10.89
COC(=O)N[C@H](C(=O)N1CCC[C@H]1c1nc2cc([C@H]3CC[C@H](c4cc5nc([C@@H]6CCCN6C(=O)[C@@H](NC(=O)OC)[C@@H](C)OC)[nH]c5cc4F)N3c3cc(F)c(N4CCC(c5ccc(F)cc5)CC4)c(F)c3)c(F)cc2[nH]1)[C@@H](C)OC ... 11.64
COC(=O)N[C@H](C(=O)N1CCC[C@H]1c1nc2ccc([C@H]3CC[C@H](c4ccc5nc([C@@H]6CCCN6C(=O)[C@@H](NC(=O)OC)C(C)C)[nH]c5c4)N3c3ccc(-c4ccccc4)cc3)cc2[nH]1)C(C)C ... 10.96
COC(=O)N[C@H](C(=O)N1CCC[C@H]1c1nc2cc(F)c([C@H]3CC[C@H](c4cc5[nH]c([C@@H]6CCCN6C(=O)[C@@H](NC(=O)OC)[C@@H](C)OC)nc5cc4F)N3c3cc(F)c(N4CCC(c5ccccc5)CC4)c(F)c3)cc2[nH]1)[C@@H](C)OC ... 11.52
COC(=O)N[C@H](C(=O)N1CCC[C@H]1c1nc2ccc([C@H]3CC[C@H](c4ccc5nc([C@@H]6CCCN6C(=O)[C@@H](NC(=O)OC)C(C)C)[nH]c5c4)N3c3ccc(N4CCC(c5ccccc5)CC4)cc3)cc2[nH]1)C(C)C ... 9.33
COC(=O)N[C@H](C(=O)N1CCC[C@H]1c1nc2ccc([C@H]3CC[C@H](c4ccc5nc([C@@H]6CCCN6C(=O)[C@@H](NC(=O)OC)C(C)C)[nH]c5c4)N3c3ccc(C4CC4)cc3)cc2[nH]1)C(C)C ... 10.39

For COC(=O)N[C@H](C(=O)N1CCC[C@H]1c1nc2ccc([C@H]3CC[C@H](c4ccc5nc([C@@H]6CCCN6C(=O)[C@@H](NC(=O)OC)C(C)C)[nH]c5c4)N3c3cc(F)c(N4CCC(c5ccccc5)CC4)c(F)c3)cc2[nH]1)C(C)C the molecule record lists pEC50 as 11.10

For COC(=O)N[C@H](C(=O)N1CCC[C@H]1C(=O)Nc1ccc([C@@H]2CC[C@@H](c3ccc(NC(=O)[C@@H]4CCCN4C(=O)[C@@H](NC(=O)OC)C(C)C)cc3)N2c2ccc(C(C)(C)C)cc2)cc1)C(C)C the molecule record lists pEC50 as 10.92

For COC(=O)N[C@H](C(=O)N1CCC[C@H]1c1nc2ccc([C@H]3CC[C@H](c4ccc5nc([C@@H]6CCCN6C(=O)[C@@H](NC(=O)OC)C(C)C)[nH]c5c4)N3c3ccc(N4CCOCC4)c(F)c3)cc2[nH]1)C(C)C the molecule record lists pEC50 as 9.51

For COC(=O)N[C@H](C(=O)N1CCC[C@H]1c1nc2cc(F)c([C@H]3CC[C@H](c4cc5[nH]c([C@@H]6CCCN6C(=O)[C@@H](NC(=O)OC)C(C)C)nc5cc4F)N3c3cc(F)c(N4CCC(c5ccc(F)cc5)CC4)c(F)c3)cc2[nH]1)C(C)C the molecule record lists pEC50 as 11.52

For COC(=O)N[C@H](C(=O)N1CCC[C@H]1c1nc2ccc([C@H]3CC[C@H](c4ccc5nc([C@@H]6CCCN6C(=O)[C@@H](NC(=O)OC)C(C)C)[nH]c5c4)N3c3ccc(N4CCOCC4)cc3)cc2[nH]1)C(C)C the molecule record lists pEC50 as 9.22

For COC(=O)N[C@H](C(=O)N1CCC[C@H]1c1nc2ccc([C@H]3CC[C@H](c4ccc5nc([C@@H]6CCCN6C(=O)[C@@H](NC(=O)OC)C(C)C)[nH]c5c4)N3c3cc(F)c(N4CCC(c5ccc(F)cc5)CC4)c(F)c3)cc2[nH]1)C(C)C the molecule record lists pEC50 as 10.70

For COC(=O)N[C@H](C(=O)N1CCC[C@H]1c1nc2ccc([C@H]3CC[C@H](c4ccc5nc([C@@H]6CCCN6C(=O)[C@@H](NC(=O)OC)C(C)C)[nH]c5c4)N3c3ccc(Oc4ccccc4)cc3)cc2[nH]1)C(C)C the molecule record lists pEC50 as 10.92

For COC(=O)N[C@H](C(=O)N1CCC[C@H]1c1nc2cc(F)c([C@H]3CC[C@H](c4cc5[nH]c([C@@H]6CCCN6C(=O)[C@@H](NC(=O)OC)C(C)C)nc5cc4F)N3c3cc(F)c(N4CCC(c5ccccc5)CC4)c(F)c3)cc2[nH]1)C(C)C the molecule record lists pEC50 as 11.10

###

- Method: Inhibition of NS5A in HuH7 cell infected HCV genotype 1b Con1 assessed as decrease in viral replication after 3 days by luciferase reporter gene assay
Form field: pEC50 (one value per entry).
As a rule, pEC50 stands for the negative log10 of the concentration, concentration in M.

For COC(=O)N[C@H](C(=O)N1CCC[C@H]1c1nc2ccc([C@H]3CC[C@H](c4ccc5nc([C@@H]6CCCN6C(=O)[C@@H](NC(=O)OC)C(C)C)[nH]c5c4)N3c3ccc(N4CCCCC4)c(F)c3)cc2[nH]1)C(C)C the compound record lists pEC50 as 10.54

For COC(=O)N[C@H](C(=O)N1CCC[C@H]1c1nc2ccc([C@H]3CC[C@H](c4ccc5nc([C@@H]6CCCN6C(=O)[C@@H](NC(=O)OC)C(C)C)[nH]c5c4)N3c3ccc(N4CCC(c5ccccc5)CC4)cc3)cc2[nH]1)C(C)C the compound record lists pEC50 as 9.49

For COC(=O)N[C@H](C(=O)N1CCC[C@H]1c1nc2cc(F)c([C@H]3CC[C@H](c4cc5[nH]c([C@@H]6CCCN6C(=O)[C@@H](NC(=O)OC)C(C)C)nc5cc4F)N3c3cc(F)c(N4CCC(c5ccc(F)cc5)CC4)c(F)c3)cc2[nH]1)C(C)C the compound record lists pEC50 as 11.52

For COC(=O)N[C@H](C(=O)N1CCC[C@H]1c1nc2ccc([C@H]3CC[C@H](c4ccc5nc([C@@H]6CCCN6C(=O)[C@@H](NC(=O)OC)C(C)C)[nH]c5c4)N3c3cc(Cl)c(N4CCCCC4)c(Cl)c3)cc2[nH]1)C(C)C the compound record lists pEC50 as 11.52

###

Form field: pEC50 (one value per entry).
- Method: Inhibition of NS5A in HuH7 cell infected HCV genotype 1b Con1 assessed as decrease in viral replication after 3 days by luciferase reporter gene assay
As a rule, pEC50 stands for the negative log10 of the concentration, concentration in M.

Some entries whose results are on file:
COC(=O)N[C@H](C(=O)N1CCC[C@H]1c1nc2ccc([C@H]3CC[C@H](c4ccc5nc([C@@H]6CCCN6C(=O)[C@@H](NC(=O)OC)C(C)C)[nH]c5c4)N3c3ccc(Oc4ccccc4)cc3)cc2[nH]1)C(C)C ... 10.70
COC(=O)N[C@H](C(=O)N1CCC[C@H]1c1nc2cc([C@H]3CC[C@H](c4cc5nc([C@@H]6CCCN6C(=O)[C@@H](NC(=O)OC)[C@@H](C)OC)[nH]c5cc4F)N3c3cc(F)c(N4CCC(c5ccc(F)cc5)CC4)c(F)c3)c(F)cc2[nH]1)[C@@H](C)OC ... 11.37
COC(=O)N[C@H](C(=O)N1CCC[C@H]1c1nc2ccc([C@H]3CC[C@H](c4ccc5nc([C@@H]6CCCN6C(=O)[C@@H](NC(=O)OC)C(C)C)[nH]c5c4)N3c3ccc(N4CCOCC4)c(F)c3)cc2[nH]1)C(C)C ... 9.71

For COC(=O)N[C@H](C(=O)N1CCC[C@H]1C(=O)Nc1ccc([C@H]2CC[C@H](c3ccc(NC(=O)[C@@H]4CCCN4C(=O)[C@@H](NC(=O)OC)C(C)C)cc3)N2c2ccc(C(C)(C)C)cc2)cc1)C(C)C the compound record lists pEC50 as 11.05

For COC(=O)N[C@H](C(=O)N1CCC[C@H]1C(=O)Nc1ccc([C@@H]2CC[C@@H](c3ccc(NC(=O)[C@@H]4CCCN4C(=O)[C@@H](NC(=O)OC)C(C)C)cc3)N2c2ccc(C(C)(C)C)cc2)cc1)C(C)C the compound record lists pEC50 as 11.30

For COC(=O)N[C@H](C(=O)N1CCC[C@H]1c1nc2ccc([C@H]3CC[C@H](c4ccc5nc([C@@H]6CCCN6C(=O)[C@@H](NC(=O)OC)C(C)C)[nH]c5c4)N3c3ccc(N4CCOCC4)cc3)cc2[nH]1)C(C)C the compound record lists pEC50 as 9.42

For COC(=O)N[C@H](C(=O)N1CCC[C@H]1c1nc2ccc([C@@H]3CC[C@@H](c4ccc5nc([C@@H]6CCCN6C(=O)[C@@H](NC(=O)OC)C(C)C)[nH]c5c4)N3c3ccc(C(C)(C)C)cc3)cc2[nH]1)C(C)C the compound record lists pEC50 as 10.89

For COC(=O)N[C@H](C(=O)N1CCC[C@H]1c1nc2ccc([C@H]3CC[C@H](c4ccc5nc([C@@H]6CCCN6C(=O)[C@@H](NC(=O)OC)C(C)C)[nH]c5c4)N3c3ccc(-c4ccccc4)cc3)cc2[nH]1)C(C)C the compound record lists pEC50 as 11.52

For COC(=O)N[C@H](C(=O)N1CCC[C@H]1c1nc2cc([C@H]3CC[C@H](c4ccc5[nH]c([C@@H]6CCCN6C(=O)[C@@H](NC(=O)OC)C(C)C)nc5c4)N3c3cc(F)c(N4CCCCC4)c(F)c3)ccc2[nH]1)C(C)C the compound record lists pEC50 as 11.22

For COC(=O)N[C@H](C(=O)N1CCC[C@H]1c1nc2cc(F)c([C@H]3CC[C@H](c4cc5[nH]c([C@@H]6CCCN6C(=O)[C@@H](NC(=O)OC)[C@@H](C)OC)nc5cc4F)N3c3cc(F)c(N4CCC(c5ccccc5)CC4)c(F)c3)cc2[nH]1)[C@@H](C)OC the compound record lists pEC50 as 11.52
